# tested target: rat B1R (bradykinin receptor 1) (Rattus norvegicus, UniProt P97583)
# Construct: expressed in transfected cells; host or cells: CHO K1 cells
# Sequence (P97583 1-337): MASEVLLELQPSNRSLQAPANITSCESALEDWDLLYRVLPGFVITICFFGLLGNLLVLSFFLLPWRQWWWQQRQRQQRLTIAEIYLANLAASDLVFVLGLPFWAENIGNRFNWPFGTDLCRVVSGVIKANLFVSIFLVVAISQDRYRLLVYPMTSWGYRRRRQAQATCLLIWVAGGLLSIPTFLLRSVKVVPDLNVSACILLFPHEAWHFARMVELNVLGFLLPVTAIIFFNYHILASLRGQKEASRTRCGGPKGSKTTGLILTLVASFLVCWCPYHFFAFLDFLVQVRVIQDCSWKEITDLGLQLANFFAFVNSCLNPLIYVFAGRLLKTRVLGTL
# test name: FLIPR Ca2+ assay (Fluo-4) on CHO K1 cells stably transfected with the B1R gene of the rat (rB1R cells): % inhibition at 10 μM / IC50, agonist Des-Arg9-bradykinin
# Format: cell-based
# run parameters: CHO-K1, rat B1R
readout kind: inhibition at 10 µM (%)
Numbers only, in %.

These recorded examples may help you get a feel for the data.
compound	inhibition at 10 µM / %
CC1(C)Cc2ccc(C(=O)N3CCC4(CC3)CCN(c3ccncc3)CC4)cc2C1NC(=O)c1cc(Cl)ccc1Cl (stereo not shown) [IND_CC-210]	104
O=C(c1ccc2c(c1)C(NS(=O)(=O)Cc1ccccc1C(F)(F)F)CC2)N1CCC2(CCN(c3ccncc3)CC2)C1 (stereo not shown) [IND_CC-258]	95
O=C(c1ccc2c(c1)C(NS(=O)(=O)c1cccc(C(F)(F)F)c1)CC2)N1CCC2(CCN(c3ccncc3)CC2)C1 (stereo not shown) [IND_CC-342]	103

Given Cc1nn(C)c(C)c1CN1CCC2(CC1)CCN(C(=O)c1ccc3c(c1)C(NC(=O)c1ccccc1Cl)CC3)C2 (stereo not shown) [IND_CC-564] , state its recorded inhibition at 10 µM. 81

###

# tested target: rat B1R (bradykinin receptor 1) (Rattus norvegicus, UniProt P97583)
# Construct: expressed in transfected cells; host or cells: CHO K1 cells
# test name: FLIPR Ca2+ assay (Fluo-4) on CHO K1 cells stably transfected with the B1R gene of the rat (rB1R cells): % inhibition at 10 μM / IC50, agonist Des-Arg9-bradykinin
# Format: cell-based
# run parameters: CHO-K1, rat B1R
Can you tell me inhibition at 10 µM for the items I'm about to list?
One number for each entry, in %.

compound	readout kind	value unit	quantitative result
O=C(NC1CCc2ccc(C(=O)N3CCC4(CCN(Cc5ccc6nccnc6c5)CC4)CC3)cc21)c1cc(C(F)(F)F)ccc1Cl (centres unmarked) [IND_CC-696]	inhibition at 10 µM	%	102
O=C(N[C@H]1CCCc2ccc(C(=O)N3CCC4(CCN(c5ccncc5)CC4)C3)cc21)c1ccccc1Cl [Example H-12]	inhibition at 10 µM	%	102
O=C(c1cccc2c1CC[C@@H]2NS(=O)(=O)c1ccccc1Cl)N1CCC2(CCN(c3ccncc3)CC2)C1 [Example H-165]	inhibition at 10 µM	%	44
O=C(N[C@@H]1CCCc2ccc(C(=O)N3CCCC4(CCN(c5ccncc5)C4)C3)cc21)c1ccccc1Cl (some centres unmarked) [Example H-70]	inhibition at 10 µM	%	103

Hi there! I need inhibition at 10 µM for each item below, if you can.
1. O=C(NC1CCc2ccc(C(=O)N3CCC4(CC3)CCN(c3ccncc3)C4)cc21)c1cccc(Cl)c1Cl (centres unmarked) [IND_CC-267]
2. Cc1cccc(Cl)c1C(=O)NC1CCc2ccc(C(=O)N3CCC4(CCN(Cc5ccc6c(c5)nnn6C)CC4)C3)cc21 (centres unmarked) [IND_CC-766]
3. O=C(NC1CCc2ccc(C(=O)N3CCC4(CC3)CCN(c3ccncc3)CC4)cc21)c1c(Cl)cccc1C(F)(F)F (centres unmarked) [IND_CC-204]
4. CN(C(=O)c1ccccc1Cl)C1CCc2ccc(C(=O)N3CCC4(CCN(C(=O)Cc5ccc(Cl)cc5)CC4)C3)cc21 (centres unmarked) [IND_CC-592]
5. O=C(NC1CCc2ccc(C(=O)N3CCC4(CC3)CCN(c3ccncc3)C4)cc21)c1cc(C(F)(F)F)ccc1Cl (centres unmarked) [IND_CC-218]

1: 106; 2: 93; 3: 102; 4: 85; 5: 103

Hi there! I need inhibition at 10 µM for each item below, if you can.
1. N#Cc1ccccc1S(=O)(=O)N1CCC2(CCN(C(=O)c3ccc4c(c3)C(NC(=O)c3ccccc3Cl)CC4)CC2)CC1 (centres unmarked) [IND_CC-611]
2. O=C(NC1CCc2ccc(C(=O)N3CCC4(CC3)CCN(c3ccncc3)C4)cc21)c1cc(Cl)ccc1Cl (centres unmarked) [IND_CC-208]
3. Cc1cccc(Cl)c1C(=O)NC1CCc2ccc(C(=O)N3CCC4(CCN(CCCc5cccc(F)c5)CC4)C3)cc21 (centres unmarked) [IND_CC-770]
4. Cc1ccccc1C(=O)NC1CCc2ccc(C(=O)N3CCC4(CC3)CCN(c3ccncc3)CC4)cc21 (centres unmarked) [IND_CC-346]

[98, 100, 109, 104]

Given O=C(NC1CCc2ccc(C(=O)N3CCC4(CC3)CCN(C(=O)c3cnccn3)CC4)cc21)c1ccccc1Cl (centres unmarked) [IND_CC-594] , state its recorded inhibition at 10 µM. 91

Ref: patent US8455475B2
